From: ChEMBL document CHEMBL3758167

experimental.protocol: in vivo
study.conditions: mouse, po, 10 mg/kg
measurement.label: Cmax (µM)

INSERT INTO measurements (molecular_string, result_units, endpoint_value) VALUES
  ('O=C(O)c1cc2c(s1)-c1ccccc1CC2', 'µM', 64);

====

experimental.protocol: in vivo
study.conditions: mouse, po, 10 mg/kg
measurement.label: AUC (µM·h)

INSERT INTO results (molecular_string, measurement_label, endpoint_value) VALUES
  ('O=C(O)c1cc2c(s1)-c1ccccc1CC2', 'AUC', 158);

====

experimental.protocol: in vivo
study.conditions: mouse, iv, 1 mg/kg
measurement.label: clearance (mL/min/kg)

INSERT INTO assay_data (molecular_string, endpoint_value) VALUES
  ('O=C(O)c1cc2c(s1)-c1ccccc1CC2', 2.4);
